- Test system: DLD-1
- ASSAY REMARKS: NCI tumour cell line growth inhibition, 48 h
The source made the active and inactive calls. No stated cut-off is given here; in the data, active = GI50 up to about 1.1 µM and inactive = higher.
Your response should consist of one outcome taken from active, inactive

// known answers, use as guide
COC1=CC(=O)c2c(O)c3c(c(O)c2C1=O)C=C(C)OC3O (centres undefined) = active
CCOC(=O)/C(O)=C(/C(=O)OC)c1ccc(Cl)cc1 = inactive
CCOc1ccc(NCC2CC/C(=C\c3ccc(Cl)cc3)C2=O)cc1 (centres undefined) = inactive

We next turn to a different molecule, shown below.
Data request: # lookup: test call for "CCOC(=O)C1Cc2ccc3c4c(ccc(c24)C1)CC(C(=O)OCC)C3"
Data returned: inactive

###

- Tested on: LXFL 529
- ASSAY REMARKS: NCI tumour cell line growth inhibition, 48 h
Activity calls are given as the source filed them. Rule as the data show it: active = GI50 up to about 1.1 µM and inactive = higher.
Your response should consist of one outcome taken from label 1 for active, label 0 for inactive

COc1ccc(C[P+]2(c3ccccc3)CCCCC2)cc1.O=[N+]([O-])c1ccc(C[P+]2(c3ccccc3)CCCCC2)cc1.[O-][Cl+3]([O-])([O-])[O-].[O-][Cl+3]([O-])([O-])[O-] = label 0
C=C1C2C[C@@H]3OC4CC5O[C@]6(CC5OC4C(C)C3OC(=O)CC3CC[C@@H]4OC5C7OC8C[C@](CCC9CC(=C)[C@H](CCC(C[C@H]1C)O2)O9)(OC7C4O3)O[C@@H]85)C[C@@H]1O[C@@]2(CC(C)[C@@H]3OC(CC(=O)CCO)C(O)C[C@@H]3O2)CC(C)[C@@H]1O6 (some centres undefined) = label 1
CCCCCCCCCCCCCC(=O)OC(/C=C/C(C)C)C(O)C(O)C(OC)C(=O)NC1CCCCN(C)C1=O (centres undefined) = label 0
CCOc1ccc(NCC2CC/C(=C\c3ccc(Cl)cc3)C2=O)cc1 (centres undefined) = label 0
CC1=C(SC#N)S(=O)(=O)N(c2ccccc2)C(C)=C1SC#N = label 0
O=C(NC12CC3CC(CC(C3)C1)C2)C(=O)c1c[nH]c2ccccc12 = label 0
Clc1ccc2c(c1)C1C(CO2)C(c2ccccc2)=NN1c1ccccc1 (centres undefined) = label 0
CCOC(=O)c1nc(-c2ccccc2)oc1OCC = label 0
COc1cc2c3c(c1OC)-c1ccccc1C(C(OC(C)=O)c1ccccc1)C3N(C)CC2 (centres undefined) = label 0
CCOC(=O)NC(=O)c1cn(CC(=O)NCC(=O)NCC(=O)NCCCN2CCN(CCCNC(=O)CNC(=O)CNC(=O)Cn3cc(C(=O)NC(=O)OCC)c(=O)[nH]c3=O)CC2)c(=O)[nH]c1=O = label 0

Data request: # lookup: test call for "CC(=O)c1ccc(Oc2ccc(/C(C)=N\N=C(N)N)cc2)cc1"
Data returned: label 0

Data request: # lookup: test call for "O=c1/c(=C/c2ccc3c(c2)OCO3)sc2nnc(-c3ccco3)n12"
Data returned: label 0

Data request: # lookup: test call for Cc1nnc(N/N=C(/C(=O)C(C#N)c2ccc(Cl)cc2)C(C#N)c2ccc(Cl)cc2)n1N (centres undefined)
Data returned: label 0

Data request: # lookup: test call for "Cc1cc2c(C)n(Cc3ccc(Cl)cc3Cl)nc2c(C(=O)O)c1C"
Data returned: label 0

###

- Tested on: NCI-H522
- ASSAY REMARKS: NCI tumour cell line growth inhibition, 48 h
Calls of active or inactive are those of the source. No stated cut-off is given here; in the data, active = GI50 up to about 1.1 µM and inactive = higher.
Your response should consist of one outcome taken from T (active), F (inactive)

// known answers, use as guide
CSc1cc(=O)n2c3ccccc3c3ccnc1c32 = F
Cc1oc2nc(N(C)C)n3nnnc3c2c1C = F
c1ccc(NNC2=NCCN2)cc1 = F

Data request: # lookup: test call for "COc1cc2c(c(OC)c1OC)-c1ccc(SC)c(=O)cc1[C@@H](NCc1cccc(C#N)c1)CC2"
Data returned: T

Data request: # lookup: test call for "CC1=C(SC#N)S(=O)(=O)N(c2ccccc2)C(C)=C1SC#N"
Data returned: F

Data request: # lookup: test call for "O=c1/c(=C/c2ccc3c(c2)OCO3)sc2nnc(-c3ccco3)n12"
Data returned: F

Data request: # lookup: test call for "Fc1cc(C2=C[C@H](c3ccc(Cl)cc3)NC(=S)N2)c(Cl)cc1Cl"
Data returned: F

Data request: # lookup: test call for "Cc1occc1C(=S)Nc1ccc(Cl)c(C(=O)OCC(C)C)c1"
Data returned: F
